Can you tell me EC50 for the items I'm about to list?
# assayedTarget: recombinant rat GluN1/GluN2C (Rattus norvegicus, UniProt P35439+Q00961)
# Construct: expressed in transfected cells; host or cells: Xenopus laevis oocytes (Ecocyte) injected with in vitro transcribed cRNA
# Sequence (Q00961 20-1237, other chains not shown): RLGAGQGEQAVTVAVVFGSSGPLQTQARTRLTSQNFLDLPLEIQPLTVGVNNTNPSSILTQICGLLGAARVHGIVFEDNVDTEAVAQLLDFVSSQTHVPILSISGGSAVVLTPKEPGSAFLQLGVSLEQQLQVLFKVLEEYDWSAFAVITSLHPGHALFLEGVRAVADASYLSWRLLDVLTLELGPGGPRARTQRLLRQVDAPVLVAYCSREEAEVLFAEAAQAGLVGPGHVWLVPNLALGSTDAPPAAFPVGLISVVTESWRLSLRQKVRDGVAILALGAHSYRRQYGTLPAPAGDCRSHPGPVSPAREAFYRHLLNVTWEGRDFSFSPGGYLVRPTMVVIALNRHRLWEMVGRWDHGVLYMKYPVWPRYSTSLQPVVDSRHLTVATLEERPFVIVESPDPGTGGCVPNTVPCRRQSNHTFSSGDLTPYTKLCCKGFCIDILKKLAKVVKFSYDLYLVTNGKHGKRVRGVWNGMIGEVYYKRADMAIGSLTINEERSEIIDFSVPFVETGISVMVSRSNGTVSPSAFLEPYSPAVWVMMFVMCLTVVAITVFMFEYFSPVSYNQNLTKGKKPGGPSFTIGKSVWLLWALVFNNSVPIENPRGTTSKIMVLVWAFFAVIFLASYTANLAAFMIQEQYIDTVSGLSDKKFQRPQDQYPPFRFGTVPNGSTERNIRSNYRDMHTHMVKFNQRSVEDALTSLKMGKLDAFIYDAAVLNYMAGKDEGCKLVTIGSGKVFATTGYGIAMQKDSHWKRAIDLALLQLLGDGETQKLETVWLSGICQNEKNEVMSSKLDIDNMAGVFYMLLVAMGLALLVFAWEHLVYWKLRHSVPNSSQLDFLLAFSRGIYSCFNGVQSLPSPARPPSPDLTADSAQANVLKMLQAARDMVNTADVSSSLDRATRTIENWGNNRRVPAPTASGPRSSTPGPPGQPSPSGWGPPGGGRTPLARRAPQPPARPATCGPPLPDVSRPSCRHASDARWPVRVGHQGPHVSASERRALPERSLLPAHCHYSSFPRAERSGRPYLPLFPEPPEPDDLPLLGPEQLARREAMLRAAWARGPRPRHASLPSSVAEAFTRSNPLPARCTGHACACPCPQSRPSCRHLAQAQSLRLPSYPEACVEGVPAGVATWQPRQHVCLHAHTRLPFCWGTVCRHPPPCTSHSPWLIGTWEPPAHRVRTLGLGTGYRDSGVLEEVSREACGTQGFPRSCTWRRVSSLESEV
# assayMethodText: Two-electrode voltage-clamp (TEVC) recordings in Xenopus laevis oocytes, GluN1/GluN2C
# Assay type: cell-based
# reportedConditions: EC50 & Max Effect: 2C (μM)
# Description: Data are from between 3-26 oocytes from 2-5 frogs for each compound and receptor tested. Two-electrode voltage-clamp recordings were performed in Xenopus laevis oocytes (Ecocyte) expressing recombinant rat GluN1/GluN2A, GluN1/GluN2B, GluN1/GluN2C, GluN1/GluN2D. cRNA was transcribed in vitro (Ambion), diluted with nuclease free water, and injected at a ratio of 1:2 GluN1:GluN2 (5-10 ng total cRNA). […]

Please fill in: EC50 reported for COc1ccc(OC[C@@H]2c3cc(OC)c(OC)cc3CCN2C(=O)c2cccc(Cl)c2)cc1 = 6.1 µM

Could you now consider this next molecule?
Please fill in: EC50 reported for COc1ccc(OCC2c3ccc(OCc4ccccc4)cc3CCN2C(=O)c2cccc(Br)c2)cc1 (centres unmarked) [drawing 33 R1=Br R2=H R3=H R4=OBn R5=H] = 0.31 µM

---

Can you tell me EC50 for the items I'm about to list?
# assayedTarget: recombinant rat GluN1/GluN2B (Rattus norvegicus, UniProt P35439+Q00960)
# Construct: expressed in transfected cells; host or cells: Xenopus laevis oocytes (Ecocyte) injected with in vitro transcribed cRNA
# Sequence (Q00960 27-1482, other chains not shown): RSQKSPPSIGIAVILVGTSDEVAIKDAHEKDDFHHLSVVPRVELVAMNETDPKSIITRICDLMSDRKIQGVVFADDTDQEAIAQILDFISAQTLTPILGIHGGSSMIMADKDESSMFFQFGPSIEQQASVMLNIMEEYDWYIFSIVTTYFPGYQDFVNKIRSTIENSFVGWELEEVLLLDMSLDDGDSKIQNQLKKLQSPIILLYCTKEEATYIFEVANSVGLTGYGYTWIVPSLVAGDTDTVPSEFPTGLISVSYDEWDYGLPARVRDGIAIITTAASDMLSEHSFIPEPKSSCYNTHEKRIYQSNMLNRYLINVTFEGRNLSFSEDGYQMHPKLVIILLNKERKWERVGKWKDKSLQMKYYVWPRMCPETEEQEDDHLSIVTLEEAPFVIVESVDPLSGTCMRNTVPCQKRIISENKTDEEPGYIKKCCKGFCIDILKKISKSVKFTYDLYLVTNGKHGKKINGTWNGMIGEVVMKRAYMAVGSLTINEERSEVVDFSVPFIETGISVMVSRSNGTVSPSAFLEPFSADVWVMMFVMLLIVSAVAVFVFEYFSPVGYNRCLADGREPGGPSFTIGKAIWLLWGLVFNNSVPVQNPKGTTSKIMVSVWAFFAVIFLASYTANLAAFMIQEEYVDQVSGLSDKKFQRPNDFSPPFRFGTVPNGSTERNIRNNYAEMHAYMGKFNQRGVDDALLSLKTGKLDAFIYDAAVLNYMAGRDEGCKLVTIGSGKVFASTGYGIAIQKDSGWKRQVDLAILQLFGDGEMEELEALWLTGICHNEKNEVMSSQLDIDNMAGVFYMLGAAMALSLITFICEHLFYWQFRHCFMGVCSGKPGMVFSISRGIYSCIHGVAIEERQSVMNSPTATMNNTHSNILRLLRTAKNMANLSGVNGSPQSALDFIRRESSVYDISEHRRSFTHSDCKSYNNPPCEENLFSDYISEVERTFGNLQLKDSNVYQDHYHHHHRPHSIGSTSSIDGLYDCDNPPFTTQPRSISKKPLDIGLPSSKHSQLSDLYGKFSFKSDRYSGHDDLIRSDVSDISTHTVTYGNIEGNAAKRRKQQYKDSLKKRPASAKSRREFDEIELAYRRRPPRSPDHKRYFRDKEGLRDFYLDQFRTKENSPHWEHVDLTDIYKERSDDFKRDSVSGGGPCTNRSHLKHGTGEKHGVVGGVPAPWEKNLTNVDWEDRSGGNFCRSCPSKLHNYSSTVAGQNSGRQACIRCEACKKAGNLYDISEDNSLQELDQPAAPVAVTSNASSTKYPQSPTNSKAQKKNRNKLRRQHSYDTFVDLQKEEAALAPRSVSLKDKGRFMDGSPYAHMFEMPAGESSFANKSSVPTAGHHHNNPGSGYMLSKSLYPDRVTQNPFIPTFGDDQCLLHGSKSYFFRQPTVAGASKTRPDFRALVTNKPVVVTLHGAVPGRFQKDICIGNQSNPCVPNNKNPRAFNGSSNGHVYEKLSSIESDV
# assayMethodText: Two-electrode voltage-clamp (TEVC) recordings in Xenopus laevis oocytes, GluN1/GluN2B
# Format: cell-based
# reportedConditions: untitled tables after drawing 25 and drawing 36; read-out: EC50 (μM) GluN2B
Include the unit right after the number.

Please fill in: EC50 reported for CC(C)Oc1ccc(OCC2c3ccc(OC(C)C)cc3CCN2C(=S)c2cccc(Cl)c2)cc1 (centres unmarked) = 0.6 µM

Could you now consider this next compound?
Please fill in: EC50 reported for COc1ccc(OCC2c3ccc(OC)cc3CCN2C(=O)c2ccc(Cl)s2)cc1 (centres unmarked) = 1.6 µM

---

# assayedTarget: recombinant rat GluN1/GluN2C (Rattus norvegicus, UniProt P35439+Q00961)
# Construct: expressed in transfected cells; host or cells: Xenopus laevis oocytes (Ecocyte) injected with in vitro transcribed cRNA
# assayMethodText: Two-electrode voltage-clamp (TEVC) recordings in Xenopus laevis oocytes, GluN1/GluN2C
# Type: cell-based
# reportedConditions: fitted when potentiation at 30 μM exceeded 120%; Tables 3, 5-7; read-out: EC50 (max.) (μM %) GluN2C: fitted EC50
propertyLabel: EC50 (µM)
Answers are plain numbers, in µM.

These recorded examples may help you get a feel for the data.
Please fill in: EC50 reported for COc1ccc(OC[C@@H]2c3ccc(OC(C)C)cc3CCN2C(=S)c2cccc(Cl)c2)cc1 [(S)-(−)-1180-163] = 0.5

Please fill in: EC50 reported for CCOc1ccc(OC[C@@H]2c3ccc(OC(C)C)cc3CCN2C(=O)c2cccc(F)c2)cc1 [(S)-(−)-1180-87] = 7.6

***
Please fill in: EC50 reported for CCOc1ccc(OCC2c3ccc(OC(C)C)cc3CCN2C(=O)c2ccc(Cl)c(Cl)c2)cc1 (stereo not drawn) = 0.65

---

# assayedTarget: recombinant rat GluN1/GluN2B (Rattus norvegicus, UniProt P35439+Q00960)
# Construct: expressed in transfected cells; host or cells: Xenopus laevis oocytes (Ecocyte) injected with in vitro transcribed cRNA
# assayMethodText: Two-electrode voltage-clamp (TEVC) recordings in Xenopus laevis oocytes, GluN1/GluN2B
# Assay type: cell-based
# reportedConditions: maximum potentiation, response without modulator = 100%; read-out: GluN2B EC50 (μM)/Max %: Max %
Can you tell me Emax for the items I'm about to list?
One number for each entry, in %.

Please fill in: Emax reported for CCOc1ccc(OCC2c3ccc(OC(C)C)cc3CCN2C(=O)c2cccc(Br)c2)cc1 (centres unmarked) = 138

Please fill in: Emax reported for CCOc1ccc(OCC2c3ccc(OC(C)C)cc3CCN2C(=O)c2cccc(Cl)c2)cc1 (centres unmarked) = 141

Please fill in: Emax reported for CCOc1ccc(OCC2c3ccc(OC(C)C)cc3CCN2C(=O)c2cccc(F)c2)cc1 (centres unmarked) = 152

Please fill in: Emax reported for COc1ccc(OCC2c3ccc(OC(C)C)cc3CCN2C(=O)c2cccc(Cl)c2)cc1 (centres unmarked) = 193

Please fill in: Emax reported for CCOc1ccc(OCC2c3ccc(OC(C)C)cc3CCN2C(=S)c2cccc(C(F)(F)F)c2)cc1 (centres unmarked) = 171

Please fill in: Emax reported for CCOc1ccc(OCC2c3ccc(OC(C)C)cc3CCN2C(=S)c2cccc(Br)c2)cc1 (centres unmarked) = 187

Please fill in: Emax reported for COc1ccc(OCC2c3ccc(OC(C)C)cc3CCN2C(=O)c2cccc(F)c2)cc1 (centres unmarked) = 450

Could you now consider this next molecule?
Please fill in: Emax reported for COc1ccc(OCC2c3ccc(OC(C)C)cc3CCN2C(=S)c2cccc(F)c2)cc1 (centres unmarked) = 307

---

Can you tell me EC50 for the items I'm about to list?
# assayedTarget: recombinant rat GluN1/GluN2C (Rattus norvegicus)
# Construct: expressed in transfected cells; host or cells: Xenopus laevis oocytes (Ecocyte) injected with in vitro transcribed cRNA
# assayMethodText: Two-electrode voltage-clamp (TEVC) recordings in Xenopus laevis oocytes, GluN1/GluN2C
# Assay type: cell-based
# reportedConditions: fitted when potentiation at 30 μM exceeded 120%; Tables 3, 5-7; read-out: EC50 (max.) (μM %) GluN2C: fitted EC50
Numbers only, in µM.

Please fill in: EC50 reported for COc1ccc(OCC2c3ccc(OC(C)C)cc3CCN2C(=S)c2cccc(Cl)c2)cc1 (racemic) = 0.32

***
Please fill in: EC50 reported for CCOc1ccc(OCC2c3ccc(OC(C)C)cc3CCN2C(=S)c2cccc(F)c2)cc1 (racemic) = 1.4

---

Can you tell me EC50 for the items I'm about to list?
# assayedTarget: recombinant rat GluN1/GluN2D (Rattus norvegicus)
# Construct: expressed in transfected cells; host or cells: Xenopus laevis oocytes (Ecocyte) injected with in vitro transcribed cRNA
# assayMethodText: Two-electrode voltage-clamp (TEVC) recordings in Xenopus laevis oocytes, GluN1/GluN2D
# Type: cell-based
# reportedConditions: fitted when potentiation at 30 μM exceeded 120%; Tables 3, 5-7; read-out: EC50 (max.) (μM %) GluN2D: fitted EC50
Answers are plain numbers, in µM.

Log: recombinant rat GluN1/GluN2D (Rattus norvegicus), compound COc1ccc(OCC2c3ccc(OC(C)C)cc3CCN2C(=S)c2cccc(Cl)c2)cc1 (racemic) , EC50 = 0.14

Could you now consider this next compound?
Log: recombinant rat GluN1/GluN2D (Rattus norvegicus), compound CCOc1ccc(OCC2c3ccc(OC(C)C)cc3CCN2C(=S)c2cccc(F)c2)cc1 (racemic) , EC50 = 1.2

---

# assayedTarget: recombinant rat GluN1/GluN2D (Rattus norvegicus, UniProt Q62645)
# Construct: expressed in transfected cells; host or cells: Xenopus laevis oocytes (Ecocyte) injected with in vitro transcribed cRNA
# Sequence (Q62645 28-1323, other chains not shown): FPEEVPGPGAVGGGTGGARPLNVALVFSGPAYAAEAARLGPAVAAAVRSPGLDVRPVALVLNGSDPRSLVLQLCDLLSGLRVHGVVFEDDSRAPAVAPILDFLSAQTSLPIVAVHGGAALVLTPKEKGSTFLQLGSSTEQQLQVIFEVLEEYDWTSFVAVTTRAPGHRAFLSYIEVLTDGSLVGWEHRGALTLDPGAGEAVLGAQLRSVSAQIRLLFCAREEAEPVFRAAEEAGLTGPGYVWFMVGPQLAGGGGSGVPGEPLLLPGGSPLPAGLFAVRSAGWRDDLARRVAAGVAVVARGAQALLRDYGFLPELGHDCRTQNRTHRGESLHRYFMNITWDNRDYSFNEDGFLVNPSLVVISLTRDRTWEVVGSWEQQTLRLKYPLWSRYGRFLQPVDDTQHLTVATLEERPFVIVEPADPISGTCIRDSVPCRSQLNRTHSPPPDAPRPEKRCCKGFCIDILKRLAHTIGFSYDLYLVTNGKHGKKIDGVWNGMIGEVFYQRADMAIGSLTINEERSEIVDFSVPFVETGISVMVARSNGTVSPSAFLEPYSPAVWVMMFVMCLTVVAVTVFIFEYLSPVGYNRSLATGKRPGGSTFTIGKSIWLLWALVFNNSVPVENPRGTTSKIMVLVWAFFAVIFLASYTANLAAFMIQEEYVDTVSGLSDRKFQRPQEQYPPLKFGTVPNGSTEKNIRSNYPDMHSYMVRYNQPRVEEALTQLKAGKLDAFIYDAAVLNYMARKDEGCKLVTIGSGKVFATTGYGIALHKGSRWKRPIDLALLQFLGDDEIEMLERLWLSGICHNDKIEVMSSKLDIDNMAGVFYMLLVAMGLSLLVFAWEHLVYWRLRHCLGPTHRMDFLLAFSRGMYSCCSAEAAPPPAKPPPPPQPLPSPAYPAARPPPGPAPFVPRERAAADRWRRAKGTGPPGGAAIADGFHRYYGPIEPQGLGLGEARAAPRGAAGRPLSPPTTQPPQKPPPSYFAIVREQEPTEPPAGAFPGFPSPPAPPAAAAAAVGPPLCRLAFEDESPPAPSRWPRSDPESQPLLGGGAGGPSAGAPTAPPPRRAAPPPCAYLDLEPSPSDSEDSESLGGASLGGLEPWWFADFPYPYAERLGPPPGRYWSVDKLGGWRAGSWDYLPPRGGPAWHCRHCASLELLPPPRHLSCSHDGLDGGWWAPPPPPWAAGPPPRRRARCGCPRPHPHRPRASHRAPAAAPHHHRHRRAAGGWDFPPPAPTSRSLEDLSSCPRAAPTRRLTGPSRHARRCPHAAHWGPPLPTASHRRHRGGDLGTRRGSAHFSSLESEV
# assayMethodText: Two-electrode voltage-clamp (TEVC) recordings in Xenopus laevis oocytes, GluN1/GluN2D
# Format: cell-based
# reportedConditions: 10 μM compound; Table 3
# Protocol: Data are from between 3-26 oocytes from 2-5 frogs for each compound and receptor tested. Two-electrode voltage-clamp recordings were performed in Xenopus laevis oocytes (Ecocyte) expressing recombinant rat GluN1/GluN2A, GluN1/GluN2B, GluN1/GluN2C, GluN1/GluN2D. cRNA was transcribed in vitro (Ambion), diluted with nuclease free water, and injected at a ratio of 1:2 GluN1:GluN2 (5-10 ng total cRNA). […]
propertyLabel: I10 μM/Icontrol (mean ± SEM, %) GluN2D
Give bare numbers, in %.

These recorded examples may help you get a feel for the data.
Please fill in: I10 μM/Icontrol (mean ± SEM, %) GluN2D reported for COc1ccc(OCC2c3ccc(OC(C)C)cc3CCN2C(=S)c2cccc(Cl)c2)cc1 (racemic) = 231

Please fill in: I10 μM/Icontrol (mean ± SEM, %) GluN2D reported for COc1ccc(OC[C@@H]2c3ccc(OC(C)C)cc3CCN2C(=O)c2cccc(Cl)c2)cc1 [(S)-(−)-1180-55] = 336

Please fill in: I10 μM/Icontrol (mean ± SEM, %) GluN2D reported for COc1ccc(OC[C@H]2c3ccc(OC(C)C)cc3CCN2C(=S)c2cccc(Cl)c2)cc1 [(R)-(+)-1180-163] = 215

Please fill in: I10 μM/Icontrol (mean ± SEM, %) GluN2D reported for COc1ccc(OC[C@H]2c3ccc(OC(C)C)cc3CCN2C(=O)c2cccc(Cl)c2)cc1 [(R)-(+)-1180-55] = 345

Please fill in: I10 μM/Icontrol (mean ± SEM, %) GluN2D reported for COc1ccc(OC[C@@H]2c3ccc(OC(C)C)cc3CCN2C(=S)c2cccc(Cl)c2)cc1 [(S)-(−)-1180-163] = 299

***
Please fill in: I10 μM/Icontrol (mean ± SEM, %) GluN2D reported for COc1ccc(OCC2c3ccc(OC(C)C)cc3CCN2C(=O)c2cccc(Cl)c2)cc1 (stereo not drawn) = 281
